result type: melting point

Solved cases (3 shown):
# compound, melting point
rows = [
    ("CC12CCC(=O)C=C1CCC1C3CC(OCCO)C(O)(C(=O)CO)C3(C)CC(O)C12F (stereo not given)", "162 to 165 °C"),
    ("CCCCN(C)C(=O)CS(=O)CCCCCOc1ccc(C2=C(c3ccccc3)CCCc3ccccc32)cc1 (stereo not given)", "120 to 121 °C"),
    ("CC(C)(C)c1nc(Cl)c2ccccc2c1-c1ccccc1", "139 to 140 °C"),
]

Request: What value of melting point has been recorded for this entry: Cc1c(C(=O)Nc2ccc(N3CCC(N4CCOCC4)CC3)c(C#N)c2)cnn1-c1cccc(Cl)c1
Response: 210 °C

Request: Please answer likewise for CN(C)C(=O)C(O)(C(=O)O)c1ccc(Cl)c(Cl)c1 (stereo not given)
Response: 158 to 160 °C

Request: Please answer likewise for CCOC=Cc1ncnc2c1ncn2Cc1ccccc1
Response: 114 to 115 °C

Request: Please answer likewise for OC1(CN2CC2)COc2ccccc2OC1
Response: 98 to 99.5 °C

Request: Please answer likewise for CS(=O)(=O)Nc1ccc2c(c1)c(C(=O)C(=O)NC1=CC(=O)OC1)cn2Cc1ccc(C(F)(F)F)cc1
Response: 267 to 269 °C

Request: Please answer likewise for O=C(NCCCN1CCOCC1)Nc1nc2ccc(OCc3c(Cl)cccc3Cl)cc2s1
Response: 162 to 166 °C

Request: Please answer likewise for CC(C)(CCP(=O)(O)O)c1ccc(O)cc1
Response: 192 to 195 °C

====

result type: melting point

Solved cases (2 shown):
# compound, melting point
records = [
    ("Cc1nnc2n1-c1sc(CCC(=O)O)cc1C(c1ccccc1Cl)=NC2C (centres undefined)", "202 to 204 °C"),
    ("CN1CCN(c2cccc3c2C[C@H](NC(=O)c2ccc(C(=O)N4CCOCC4)cc2)CO3)CC1", "222 °C"),
]

Request: What value of melting point has been recorded for this entry: CCn1nc(C)c2nc(C)nc(O)c21
Response: 220 to 223 °C

Request: Please answer likewise for COc1ccc(C=CC(=O)OCCC(C)CCc2ccccc2)c(O)c1 (centres undefined)
Response: 70 to 73 °C

Request: Please answer likewise for O=C(O)c1ccc(S(=O)(=O)Oc2ccc(-c3ccc(-c4c(Cc5ccccc5)sc5ccccc45)cc3)cc2)cc1O
Response: 236 to 238 °C

Request: Please answer likewise for CC1CCC(=O)CC1S(=O)(=O)c1ccccc1 (centres undefined)
Response: 71 to 74 °C

Request: Please answer likewise for Cc1cc(C)c(C(=O)P(=O)(C(=O)c2c(C)cc(C)cc2C)c2ccccc2)c(C)c1
Response: 130 to 131 °C

Request: Please answer likewise for C1=C(OCc2ccccc2)CCN(Cc2nc3ccccc3[nH]2)C1
Response: 170 to 172 °C

Request: Please answer likewise for CC(C)(C)c1c(Cl)nc(Cl)nc1Cl
Response: 58 to 59 °C

Request: Please answer likewise for CCOC(=O)COc1ccccc1Cn1c(-c2ccc(C(F)(F)F)cc2)c(C)c2cc(OCc3ccccc3)ccc21
Response: 221 °C

Request: Please answer likewise for Cc1cc2cc(CN3CCC(CC(=O)N4CCCCC4)CC3)cnc2cc1NC(=O)c1ccc(-c2ccc(F)cc2)cc1
Response: 216 °C

Request: Please answer likewise for CC(=O)c1cc(C(N)=O)cs1
Response: 156 to 158 °C

====

result type: melting point

Solved cases (10 shown):
# compound, melting point
data = [
    ("CC(C)[C@H](NC(=O)/C=C/c1nccs1)C(=O)N[C@@H](Cc1ccccc1)[C@@H](O)[C@H](O)[C@H](Cc1ccccc1)NC(=O)[C@@H](NC(=O)/C=C/c1nccs1)C(C)C", "> 260 °C"),
    ("O=Cc1ccc2c(c1)S(=O)(=O)c1ccccc1N2c1ccccc1", "260 to 272 °C"),
    ("C#Cc1ccc2c(c1)C1(c3ccccc3-c3ccccc31)c1ccccc1-2", "169 to 170 °C"),
    ("CCCCOc1ccc(S(=O)(=O)C2(C(=O)O)CCN(Cc3cccc(OC)c3)CC2)cc1", "175 °C"),
    ("COc1ccc2c(c1)OCC(c1ccc(C(F)(F)F)cc1)C2c1ccc(OCCN2CCCC2)cc1 (stereo not given)", "119 to 120 °C"),
    ("O=C1NC(c2ccccc2)c2cc(Cl)ccc2-n2nc(CO)cc21 (stereo not given)", "260 to 262 °C"),
    ("O=C(OCCCl)c1ccccc1CS(=O)(=O)Cl", "66 to 67 °C"),
    ("O=C(NO)c1cc2ccccc2cn1", "160 to 165 °C"),
    ("CCCCCCOCC1CN(c2cc3c(cc2F)c(=O)c(C(=O)O)cn3CC)CCN1C (stereo not given)", "172 to 174 °C"),
    ("COc1cc2c(c3ccccc13)Nc1ccccc1S2", "168 to 170 °C"),
]

Request: What value of melting point has been recorded for this entry: Cn1c([N+](=O)[O-])cnc1C1=NOC2CCCC12 (stereo not given)
Response: 89.5 to 91.5 °C

Request: Please answer likewise for O=C(c1ccccc1)c1cc([N+](=O)[O-])ccc1OCCO
Response: 124 to 126 °C

Request: Please answer likewise for CNC(=O)N1C(=O)CC(c2ccc(OC)c(OC3CCCC3)c2)N1C (stereo not given)
Response: 65 to 68 °C

Request: Please answer likewise for COc1ccc(-c2cc(CN3CCNCC3)c(=O)n(CC3CC3)n2)cc1F
Response: 112 to 118 °C

Request: Please answer likewise for O=C(O)Cn1ncc2c(=O)n3c(nc21)SCC3
Response: 212 to 214 °C

Request: Please answer likewise for COc1cccc(-c2ccc(C3C(CCC(O)c4ccc(F)cc4)C(=O)N3c3ccc(F)cc3)cc2)c1OC (stereo not given)
Response: 101 °C

====

result type: melting point

# compound, melting point
data = [
    ("CCCC(NS(=O)(=O)c1ccc(C)cc1)P(=O)(Oc1ccccc1)Oc1ccccc1 (centres undefined)", "178 to 180 °C"),
    ("COc1ccc(C2=NN(C3CCN(c4ccc([N+](=O)[O-])cc4)CC3)C(=O)[C@@H]3CC=CC[C@H]23)cc1OC", "196 to 197 °C"),
]

Request: What value of melting point has been recorded for this entry: CCCCCC(C)Oc1cc(O)c2c(c1)OC(C)(C)C1CCC(=O)C=C21 (centres undefined)
Response: 185 to 189 °C

Request: Please answer likewise for CCCCc1nc(Cl)c(C(=O)O)n1Cc1ccc(-c2ccccc2-c2c(O)c(=O)c2=O)cc1
Response: 168 °C

====

Quick list: melting point per entry.

Request: What value of melting point has been recorded for this entry: COc1ccc(-c2c(Br)c(CN3C(=O)CCC3=O)nc3sc4c(c23)CCN(Cc2ccccc2)C4)cc1
Response: 255 to 256 °C

Request: Please answer likewise for Cc1c(-c2ccccc2)c(N2CC[C@H](N(C)C)C2)c2oc(N3CC(CC(=O)O)C3)nc2c1C#N
Response: 125 to 128 °C

Request: Please answer likewise for Cc1nc2ccc3c(c2o1)OC(CN1CCC(O)(c2cccc(C(F)(F)F)c2)CC1)CO3 (centres undefined)
Response: 148 to 151 °C

Request: Please answer likewise for O=c1[nH]c2cc(Cl)c(S(=O)CCN3CCC(Cc4ccccc4)CC3)cc2o1 (centres undefined)
Response: 190 to 192 °C

====

Quick list: melting point per entry.

Solved cases (2 shown):
# compound, melting point
measured = [
    ("Clc1ccc(Nc2nnc(Cc3ccncc3)c3ccccc23)cc1Cl", "249 to 250 °C"),
    ("O=C1CCC(c2ccccc2)(c2ccccc2)C2CN(C(Cc3ccccc3)=NCc3cccc4ccccc34)CC12 (centres undefined)", "192 °C"),
]

Request: What value of melting point has been recorded for this entry: COC(=O)c1c[nH]c2ccc(N)cc12
Response: 217 to 219 °C

Request: Please answer likewise for CCCn1c(=O)c2[nH]c(C3CCCC3)nc2n(CCc2ccc(NC(=O)C3CCCC3)cc2)c1=O
Response: > 270 °C

Request: Please answer likewise for O=[N+]([O-])c1cccc(OCc2nc3ccccc3s2)c1
Response: 156 to 157 °C

Request: Please answer likewise for COc1ccc(CC(=O)O)cc1C1CCCCC1
Response: 112 to 114 °C

Request: Please answer likewise for COc1ccc(C2=NN(C3CCN(C(=O)NC(C)(C)C)CC3)C(=O)CC2)cc1OC
Response: 76 to 78 °C

Request: Please answer likewise for N=C(NO)c1ccc(-c2cccc(-c3nc4cc(C(=N)NO)ccc4[nH]3)c2)cc1
Response: 317 to 319 °C

Request: Please answer likewise for O=C(O)CCOc1cccc2c1Cc1sc(SCCC(c3ccccc3)c3ccccc3)nc1-2
Response: 113 to 114 °C

These entries and their values trace back to a melting point compilation (Tetko et al.; mined from patent text by program, amines drawn as free bases though some values may be those of a salt).
